Assay: Stability in human whole blood
Type: in vitro ADME
Conditions: Diastereoisomer B, 37° C., up to 60 min, read-out: t1/2 (h) Human Whole Blood Diastereoisomer B (converted)
property_name: half-life at 3 μM (h)

- compound: "CC(=O)SCCNC(=O)CCNC(=O)[C@@H]1OP(=O)(OCOC(=O)NCCOC(=O)C(C)(C)C)OCC1(C)C (stereo partly shown) [R1008]"
  test_value: 0.23

I. CC(=O)SCCNC(=O)CCNC(=O)[C@@H]1OP(=O)(OCOC(=O)NCCSC(=O)C(C)(C)C)OCC1(C)C (stereo partly shown) [R1023]
II. CC(=O)SCCNC(=O)CCNC(=O)[C@@H]1OP(=O)(OCOC(=O)N[C@@H](CSC(=O)C(C)(C)C)C(=O)O)OCC1(C)C (stereo partly shown) [R1013]
III. CC(=O)SCCNC(=O)CCNC(=O)[C@@H]1O[P@](=O)(OCOC(=O)NCCOC(=O)C(C)(C)C)OCC1(C)C [R1031]
Query: Please rank these compounds by half-life at 3 μM in descending order. Thanks in advance for listing the labels in the requested order.
Response: II, III, I

* * *

Assay: Stability of compounds in human hepatocytes
Type: in vitro ADME
Settings: cryopreserved human hepatocytes in suspension, Diastereoisomer A (upfield shift in 31P NMR), 37° C., 0-240 min, read-out: t1/2 (h) Human Hepatocytes Diastereoisomer A (converted)
property_name: half-life at 5 μM (h)

I. CC(=O)SCCNC(=O)CCNC(=O)[C@@H]1OP(=O)(OCOC(=O)c2scnc2C)OCC1(C)C (stereo partly shown) [R1006]
II. CC(=O)SCCNC(=O)CCNC(=O)[C@@H]1OP(=O)(OCOC(=O)NCCOC(=O)C(C)(C)C)OCC1(C)C (stereo partly shown) [R1008]
Query: Which item exceeds the other in half-life at 5 μM, I or II ? Could you answer with the label of the item you picked?
Response: I
(I: 0.42 h, II: 0.29 h)

* * *

Assay: Stability in human plasma
Format: in vitro ADME
Settings: Diastereoisomer A (upfield shift in 31P NMR), 37° C., up to 60 min, read-out: t1/2 (h) Human Plasma Diastereoisomer A (converted)
property_name: half-life at 3 μM (h)
Your answer is read as h, so omit the unit and give the number.

Query: I would be grateful if you could share the reported half-life at 3 μM for `CC(=O)SCCNC(=O)CCNC(=O)[C@@H]1O[P@@](=O)(OCOC(=O)C(C)(C)C)OCC1(C)C` .
Response: 0.72

* * *

Experiment: Stability of compounds in mouse hepatocytes
Type: in vitro ADME
Conditions: cryopreserved mouse hepatocytes in suspension, Diastereoisomer B, 37° C., 0-240 min, read-out: t1/2 (h) Mouse Hepatocytes Diastereoisomer B
Method: Stability in hepatocytes for select compounds disclosed in the application was evaluated in two species (mouse and human) according to the following procedure. Compounds and positive control samples were dissolved in 100% DMSO at 5 mM. […] Stability was determined based on analysis of disappearance of the compounds as a function of incubation time. Quantification of test compounds was measured as a peak area relative to an internal standard. […]
property_name: half-life at 5 μM

Check out these entries, answers already filled in.
- compound: "CC(=O)SCCNC(=O)CCNC(=O)[C@@H]1OP(=O)(OCOC(=O)NCCOC(=O)C(C)(C)C)OCC1(C)C (stereo partly drawn)"
  half-life at 5 μM: "< 0.25 h"
- compound: "CC(=O)SCCNC(=O)CCNC(=O)[C@@H]1OP(=O)(OCOC(=O)c2scnc2C)OCC1(C)C (stereo partly drawn)"
  half-life at 5 μM: "< 0.25 h"

Consider the additional compound presented here.
Query: I would be grateful if you could share the reported half-life at 5 μM for CC(=O)SCCNC(=O)CCNC(=O)[C@@H]1OP(=O)(OCOC(=O)c2cc(C)nn2C)OCC1(C)C (stereo partly drawn) .
Response: < 0.25 h
